Target: T1, human transferrin receptor (recombinant, for surface plasmon resonance) (human, UniProt P02786 89-760)
T1 construct: also called huTfR; human transferrin receptor-biotinylated
T1 sequence (P02786 89-760 limits assumed): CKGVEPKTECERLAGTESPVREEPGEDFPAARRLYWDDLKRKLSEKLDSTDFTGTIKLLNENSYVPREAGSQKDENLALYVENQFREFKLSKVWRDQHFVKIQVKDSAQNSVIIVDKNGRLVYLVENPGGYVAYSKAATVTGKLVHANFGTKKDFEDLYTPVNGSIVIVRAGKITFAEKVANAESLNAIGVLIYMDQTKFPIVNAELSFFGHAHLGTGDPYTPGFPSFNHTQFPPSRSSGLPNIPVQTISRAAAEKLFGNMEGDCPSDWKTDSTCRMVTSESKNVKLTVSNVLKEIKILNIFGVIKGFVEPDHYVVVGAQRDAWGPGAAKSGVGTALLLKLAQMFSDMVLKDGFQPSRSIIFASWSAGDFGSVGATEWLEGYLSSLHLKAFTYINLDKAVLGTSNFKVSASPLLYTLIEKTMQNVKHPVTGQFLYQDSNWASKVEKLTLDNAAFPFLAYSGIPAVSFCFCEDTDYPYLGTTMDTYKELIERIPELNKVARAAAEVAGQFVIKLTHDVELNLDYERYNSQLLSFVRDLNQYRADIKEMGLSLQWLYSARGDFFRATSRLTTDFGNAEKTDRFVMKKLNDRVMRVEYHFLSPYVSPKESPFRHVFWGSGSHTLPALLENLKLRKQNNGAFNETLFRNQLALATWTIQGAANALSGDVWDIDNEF
Assay: SPR 25C
Entries annotated with measured koff
State just the number; it will be interpreted in s⁻¹.

Look over these answered cases.
binder: 2/99 VH6/VL5 (antibody, V domains shown) VH: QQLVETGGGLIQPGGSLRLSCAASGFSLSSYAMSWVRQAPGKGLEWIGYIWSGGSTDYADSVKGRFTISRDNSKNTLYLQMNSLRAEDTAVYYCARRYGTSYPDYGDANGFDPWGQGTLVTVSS VL: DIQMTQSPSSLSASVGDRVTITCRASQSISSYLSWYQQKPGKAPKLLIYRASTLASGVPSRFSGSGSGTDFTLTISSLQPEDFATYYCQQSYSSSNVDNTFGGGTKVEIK
koff [s⁻¹]: 0.00166

binder: 2/99 VH15/VL10 (antibody, V domains shown) VH: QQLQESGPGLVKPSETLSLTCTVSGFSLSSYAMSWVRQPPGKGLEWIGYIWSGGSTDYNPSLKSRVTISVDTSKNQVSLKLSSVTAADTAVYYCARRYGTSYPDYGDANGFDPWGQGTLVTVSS VL: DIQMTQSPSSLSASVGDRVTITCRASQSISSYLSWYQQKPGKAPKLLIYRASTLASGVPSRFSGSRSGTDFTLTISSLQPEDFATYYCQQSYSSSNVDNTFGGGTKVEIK
koff [s⁻¹]: 0.00399

binder: 2/99 VH11/VL3 (antibody, V domains shown) VH: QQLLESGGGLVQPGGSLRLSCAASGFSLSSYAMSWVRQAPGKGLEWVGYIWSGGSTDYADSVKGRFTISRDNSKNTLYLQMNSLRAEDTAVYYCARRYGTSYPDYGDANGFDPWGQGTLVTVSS VL: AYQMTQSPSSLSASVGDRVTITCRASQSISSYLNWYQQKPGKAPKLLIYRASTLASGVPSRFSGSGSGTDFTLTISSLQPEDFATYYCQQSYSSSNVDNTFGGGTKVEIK
koff [s⁻¹]: 0.00565

binder: 2/99 VH16/VL8 (antibody, V domains shown) VH: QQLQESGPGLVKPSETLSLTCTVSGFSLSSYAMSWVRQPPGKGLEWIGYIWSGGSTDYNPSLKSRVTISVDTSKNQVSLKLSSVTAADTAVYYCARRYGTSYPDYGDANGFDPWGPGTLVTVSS VL: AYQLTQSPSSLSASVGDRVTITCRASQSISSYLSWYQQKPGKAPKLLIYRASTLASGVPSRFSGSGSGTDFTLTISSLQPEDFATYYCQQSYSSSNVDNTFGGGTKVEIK
koff [s⁻¹]: 0.00197

Now turn to the next binder.
For this binder ( 2/99 VH2/VL2 (antibody, V domains shown) VH: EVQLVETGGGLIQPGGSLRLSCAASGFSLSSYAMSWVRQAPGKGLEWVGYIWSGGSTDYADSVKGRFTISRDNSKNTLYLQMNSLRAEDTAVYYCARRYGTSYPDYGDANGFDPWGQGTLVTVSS VL: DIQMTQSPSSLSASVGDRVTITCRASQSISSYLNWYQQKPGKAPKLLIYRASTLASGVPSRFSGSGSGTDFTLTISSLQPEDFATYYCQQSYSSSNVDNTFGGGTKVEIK ), measured koff is 0.00275
